# Lookup of reported amount of NH4 ions produced in the supernatant (Table 1, Experiment 1) keyed by entry
# Tested on: nitrilase (nitA) from Rhodococcus rhodochrous NCIMB 11216 expressed in E. coli JM 109
# assaySummary: Conversion of nitriles by E. coli JM 109 (pDHE 17 and pDHE 18) cells; NH4 ions produced in supernatant, measured at 620 nm
# Assay type: biochemical
# conditionSet: Experiment 1; E. coli JM 109 (pDHE 17 and pDHE 18) cells, 2 g DBM/l, 30° C., 200 rpm, 1 h; measurement at 620 nm
# answer = number (no unit)

Guide cases for amount of NH4 ions produced in the supernatant (Table 1, Experiment 1), answers given:
{"compound": "CC=CC#N [Crotononitrile]", "measured": 0.4946}
{"compound": "N#CCCO [3-Hydroxypropionitrile]", "measured": 0.1785}
{"compound": "N#CCc1ccc(F)cc1 [4-Fluorobenzyl cyanide]", "measured": 0.2361}
{"compound": "N#CCCCCCN [Aminocapronitrile]", "measured": 0.1236}
{"compound": "N#CCC(O)CCl (stereo not drawn) [4-Chloro-3-hydroxybutyronitrile]", "measured": 0.1208}

Continue with the compound presented below.
Which amount of NH4 ions produced in the supernatant (Table 1, Experiment 1) value is on record for N#CCc1ccc(Br)cc1 [4-Bromobenzyl cyanide] ?
0.5213

====

# Tested on: nitrilase (nitA) from Rhodococcus rhodochrous NCIMB 11216 expressed in E. coli JM 109
# assaySummary: Conversion of nitriles by E. coli JM 109 (pDHE 17 and pDHE 18) cells; NH4 ions produced in supernatant, measured at 620 nm
# Assay type: biochemical
# conditionSet: Experiment 2, in analogy to Experiment 1; E. coli JM 109 cells, 30° C., 1 h; measurement at 620 nm
Record true (1) whenever amount of NH4 ions produced in the supernatant (Table 2, Experiment 2) is at 1 or higher; record false (0) when lower.

{"compound": "CCCCC#N", "qualitativeLabel": "true (1)"}
{"compound": "N#CCC(CC#N)c1ccccc1", "qualitativeLabel": "false (0)"}
{"compound": "N#CC(O)c1ccccc1 (stereo not drawn)", "qualitativeLabel": "false (0)"}
{"compound": "COC(CC#N)OC", "qualitativeLabel": "false (0)"}
{"compound": "N#CCCCC#N", "qualitativeLabel": "true (1)"}

Would you say CC(O)C#N (stereo not drawn) [2-Hydroxypropionitrile] shows amount of NH4 ions produced in the supernatant (Table 2, Experiment 2) at minimum 1?
false (0)

Next: `N#Cc1ccccc1`
true (1)

Next: N#C/C=C/c1ccccc1 [trans-cinnamonitrile]
true (1)

Next: `N#C/C=C/C#N`
true (1)

Next: N#CC(O)CCc1ccccc1 (stereo not drawn) [2-Hydroxy-4-phenylbutyronitrile]
false (0)

Next: `CCC#N`
false (0)

Next: N#CC(N)c1ccccc1 (stereo not drawn)
false (0)

Next: `N#Cc1ccsc1`
true (1)

Next: CC(C#N)c1ccccc1 (stereo not drawn)
false (0)

====

# Tested on: nitrilase (nitA) from Rhodococcus rhodochrous NCIMB 11216 expressed in E. coli JM 109
# assaySummary: Conversion of nitriles by E. coli JM 109 (pDHE 17 and pDHE 18) cells; NH4 ions produced in supernatant, measured at 620 nm
# Format: biochemical
# conditionSet: Experiment 1; E. coli JM 109 (pDHE 17 and pDHE 18) cells, 2 g DBM/l, 30° C., 200 rpm, 1 h; measurement at 620 nm
# Lookup of reported amount of NH4 ions produced in the supernatant (Table 1, Experiment 1) keyed by entry
# answer = number (no unit)

Guide cases for amount of NH4 ions produced in the supernatant (Table 1, Experiment 1), answers given:
{"compound": "CC(C)=CCC/C(C)=C/C#N", "measured": 0.1517}
{"compound": "N#Cc1ccc(O)c(O)c1 [3,4-Dihydroxybenzonitrile]", "measured": 0.1569}
{"compound": "N#Cc1ccccc1", "measured": 0.4051}
{"compound": "Cc1ccc(C#N)cc1", "measured": 0.4326}
{"compound": "N#Cc1cc(Br)c(O)c(Br)c1 [3,5-Dibromo-4-hydroxybenzonitrile]", "measured": 0.1624}

Which amount of NH4 ions produced in the supernatant (Table 1, Experiment 1) value is on record for CC(C#N)CCC#N (stereo not drawn) ?
0.4758

Next: N#CCc1ccccc1Cl [2-Chlorobenzyl cyanide]
0.4530
